- Test System: Avi-KRAS G12R (1-169) GppNHp/RAF1 RBD-3xFLAG (52-151) (Homo sapiens, UniProt P01116, G12R)
- Construct: Avi-KRAS G12R (1-169)
- Sequence (P01116 1-169 isoform P01116-2 G12R): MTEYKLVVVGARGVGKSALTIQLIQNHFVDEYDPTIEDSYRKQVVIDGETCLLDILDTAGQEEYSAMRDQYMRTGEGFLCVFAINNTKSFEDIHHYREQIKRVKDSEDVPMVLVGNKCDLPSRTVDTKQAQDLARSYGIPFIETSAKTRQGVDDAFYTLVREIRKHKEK
- Assay Procedure: Raf1-KRAS G12R-GppNHP disruption HTRF assay (Biological Example 1)
- Format: binding
- Run Conditions: KRAS G12R, GppNHp-loaded; class symbols
- Experimental: A protein:protein interaction (PPI) Homogeneous Time Resolved Fluorescence (HTRF) assay was used to determine the effectiveness of compounds of the present disclosure in disrupting KRAS protein and effector RAF1 binding. The assay buffer included: 50 mM Tris pH 7.5, 100 mM NaCl, 5 mM MgCl2, 0.1% BSA, 0.01% Tween, and 10% DMSO. The bead buffer included: 50 mM Tris pH 7.5, and 0.01% Tween 20. […] Data was reported as percentage of activity, with DMSO as 100%. Data was plotted and analyzed using Prism 8.
Readout Name: IC50

Use the examples below as a reference point.
Compound	Test System	IC50
CCN(c1nc(OC[C@@]23CCCN2C[C@H](F)C3)nc2c(F)c(-c3ccc(F)c4sc(N)c(C#N)c34)c(C(F)(F)F)cc12)[C@H]1CCN(C(=O)[C@H](C)OC)C1 (atropisomer, axis not shown)	Avi-KRAS G12R (1-169) GppNHp/RAF1 RBD-3xFLAG (52-151) (Homo sapiens, UniProt P01116, G12R)	< 100 nM
CCN(CC)C(=O)c1cc2n(n1)CCN(c1nc(OCC34CCCN3CC(F)C4)nc3c(F)c(-c4ccc(F)c5sc(N)c(C#N)c45)c(C(F)(F)F)cc13)C2 (centres unmarked)	Avi-KRAS G12R (1-169) GppNHp/RAF1 RBD-3xFLAG (52-151) (Homo sapiens, UniProt P01116, G12R)	100 to 1000 nM

# query: IC50 of entry Cc1c(C(=O)N(C)C)nn2c1CN(c1nc(OC[C@@]34CCCN3C[C@H](F)C4)nc3c(F)c(-c4ccc(F)c5sc(N)c(C#N)c45)c(C(F)(F)F)cc13)CC2 (atropisomer, axis not shown; (aS))
< 100 nM

Check CCN(c1nc(OC[C@@]23CCCN2C[C@H](F)C3)nc2c(F)c(-c3ccc(F)c4sc(N)c(C#N)c34)c(C(F)(F)F)cc12)[C@H]1CCN(C(=O)OC2CC2)C1 (atropisomer, axis not shown) too.
< 100 nM

Check CCN(c1nc(OC[C@@]23CCCN2C[C@H](F)C3)nc2c(F)c(-c3ccc(F)c4sc(N)c(C#N)c34)c(C(F)(F)F)cc12)[C@H]1CCN(C(=O)[C@H]2CCCCO2)C1 (atropisomer, axis not shown) too.
< 100 nM

---

- Test System: Avi-KRAS WT (1-169) GppNHp/RAF1 RBD-3xFLAG (52-151) (Homo sapiens, UniProt P01116)
- Construct: Avi-KRAS WT (1-169)
- Sequence (P01116 1-169 isoform P01116-2): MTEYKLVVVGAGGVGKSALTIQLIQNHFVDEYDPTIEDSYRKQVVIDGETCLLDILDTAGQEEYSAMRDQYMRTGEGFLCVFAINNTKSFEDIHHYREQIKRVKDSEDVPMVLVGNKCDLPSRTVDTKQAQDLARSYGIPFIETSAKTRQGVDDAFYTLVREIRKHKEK
- Assay Procedure: Raf1-KRAS WT-GppNHP disruption HTRF assay (Biological Example 1)
- Assay type: binding
- Run Conditions: KRAS WT, GppNHp-loaded; class symbols
pIC50: −log10 of the molar value.
Readout Name: pIC50

Use the examples below as a reference point.
Compound	Meas Value
CCN(c1nc(OC[C@@]23CCCN2C[C@H](F)C3)nc2c(F)c(-c3ccc(F)c4sc(N)c(C#N)c34)c(C(F)(F)F)cc12)[C@H]1CCN(C(=O)N2CCC2)C1 (atropisomer, axis not shown) [Compound 574]	> 7.00
CCN(c1nc(OC[C@@]23CCCN2C[C@H](F)C3)nc2c(F)c(-c3ccc(F)c4sc(N)c(C#N)c34)c(C(F)(F)F)cc12)[C@H]1CCN(C(=O)OC2CC(F)C2)C1 (some centres unmarked) [Compound 787]	> 7.00
CCN(c1nc(OC[C@@]23CCCN2C[C@H](F)C3)nc2c(F)c(-c3ccc(F)c4sc(N)c(C#N)c34)c(C(F)(F)F)cc12)[C@H]1CCN(C(=O)OC2CCC2)C1 (atropisomer, axis not shown) [Compound 802]	6.00 to 7.00
CCN(c1nc(OC[C@@]23CCCN2C[C@H](F)C3)nc2c(F)c(-c3ccc(F)c4sc(N)c(C#N)c34)c(C(F)(F)F)cc12)[C@H]1CCN(C(=O)N2CC3C(C2)C3(F)F)C1 (some centres unmarked) [Compound 657]	> 7.00

# query: pIC50 of entry CCN(c1nc(OC[C@@]23CCCN2C[C@H](F)C3)nc2c(F)c(-c3ccc(F)c4sc(N)c(C#N)c34)c(C(F)(F)F)cc12)[C@H]1CCN(C(=O)C(C)(F)F)C1 (atropisomer, axis not shown) [Compound 587]
> 7.00

Check CC(C)C(=O)N1CC[C@H](N(CCF)c2nc(OC[C@@]34CCCN3C[C@H](F)C4)nc3c(F)c(-c4ccc(F)c5sc(N)c(C#N)c45)c(C(F)(F)F)cc23)C1 (atropisomer, axis not shown) [Compound 814] too.
6.00 to 7.00

Check CCN(c1nc(OC[C@@]23CCCN2C[C@H](F)C3)nc2c(F)c(-c3ccc(F)c4sc(N)c(C#N)c34)c(C(F)(F)F)cc12)[C@H]1C[C@H]2CN(C(C)C)C(=O)N2C1 (atropisomer, axis not shown) [Compound 784] too.
> 7.00

Check CCN(c1nc(OC[C@@]23CCCN2C[C@H](F)C3)nc2c(F)c(-c3ccc(F)c4sc(N)c(C#N)c34)c(C(F)(F)F)cc12)[C@H]1CCN(C(=O)[C@H]2CCCO2)C1 (atropisomer, axis not shown) [Compound 735] too.
> 7.00

Check C[C@@H](c1cccnc1N)N(C)c1nc(OC[C@@]23CCCN2C[C@H](F)C3)nc2c(F)c(-c3ccc(F)c4sc(N)c(C#N)c34)c(C(F)(F)F)cc12 (atropisomer, axis not shown) [Compound 601] too.
6.00 to 7.00

Check CCN(c1nc(OC[C@@]23CCCN2C[C@H](F)C3)nc2c(F)c(-c3ccc(F)c4sc(N)c(C#N)c34)c(C(F)(F)F)cc12)[C@H]1CCN(C(=O)OC2CN(C(C)=O)C2)C1 (atropisomer, axis not shown) [Compound 721] too.
> 7.00

Check CCN1C[C@@H](N(CC)c2nc(OC[C@@]34CCCN3C[C@H](F)C4)nc3c(F)c(-c4ccc(F)c5sc(N)c(C#N)c45)c(C(F)(F)F)cc23)CC1=O (atropisomer, axis not shown) [Compound 634] too.
> 7.00

Check CCN(c1nc(OC[C@@]23CCCN2C[C@H](F)C3)nc2c(F)c(-c3ccc(F)c4sc(N)c(C#N)c34)c(C(F)(F)F)cc12)[C@H]1CCN(C(=O)N(C)C(C)C)C1 (atropisomer, axis not shown) [Compound 585] too.
> 7.00

---

- System: HT1080 cells (NRAS)
- Assay Procedure: Cell-based pERK HTRF assay in HT1080 cells (Biological Example 5)
- Run Conditions: Homo sapiens, HT-1080
pIC50: −log10 of the molar value.
The entries below come with measured pIC50 values attached.

                                   compound  meas_value
0  CC(=O)N1CC[C@@H](N(C)c2nc(OC[C@@]34CCCN3C[C@H](F)C4)nc3c(F)c(-c4ccc(F)c5sc(N)c(C#N)c45)c(Cl)cc23)[C@H]1C [Compound 398]      < 6.00
1  N#Cc1c(N)sc2c(F)ccc(-c3c(C(F)(F)F)cc4c(N5CCCOCC5)nc(OC[C@@]56CCCN5C[C@H](F)C6)nc4c3F)c12 [Compound 232]      < 6.00

# query: pIC50 of entry N#Cc1cnn2c1CN(c1nc(OC[C@@]34CCCN3C[C@H](F)C4)nc3c(F)c(-c4ccc(F)c5sc(N)c(C#N)c45)c(C(F)(F)F)cc13)CC2 [Compound 392]
< 6.00

---

- Test System: Avi-KRAS G12D (2-169) GTP/RAF1 RBD-3xFLAG (51-131) (Homo sapiens, UniProt P01116, G12D)
- Construct: Avi-KRAS G12D (2-169)
- Sequence (P01116 2-169 isoform P01116-2 G12D): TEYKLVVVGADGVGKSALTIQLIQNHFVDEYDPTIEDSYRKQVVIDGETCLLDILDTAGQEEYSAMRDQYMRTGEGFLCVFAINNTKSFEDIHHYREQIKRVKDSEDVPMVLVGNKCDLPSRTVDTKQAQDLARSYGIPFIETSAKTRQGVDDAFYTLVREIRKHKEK
- Assay Procedure: Raf1-KRAS G12D-GTP disruption HTRF assay (Biological Example 3)
- Assay type: binding
- Run Conditions: KRAS G12D, GTP-loaded
The entries below come with measured IC50 values attached.

# query: IC50 of entry CCN(c1nc(OC[C@@]23CCCN2C[C@H](F)C3)nc2c(F)c(-c3ccc(F)c4sc(N)c(C#N)c34)c(C(F)(F)F)cc12)[C@H]1CCN(C(=O)C2CC2)[C@@H]1COC (atropisomer, axis not shown)
100 to 1000 nM

Check CCN(c1nc(OC[C@@]23CCCN2C[C@H](F)C3)nc2c(F)c(-c3ccc(F)c4sc(N)c(C#N)c34)c(C(F)(F)F)cc12)[C@H]1CCN(C(=O)O[C@@H]2CCOC2)[C@@H]1C (atropisomer, axis not shown) too.
100 to 1000 nM

Check CCN(c1nc(OC[C@@]23CCCN2C[C@H](F)C3)nc2c(F)c(-c3ccc(F)c4sc(N)c(C#N)c34)c(C(F)(F)F)cc12)[C@@H]1C[C@@H](C)N(C(C)=O)C1 (atropisomer, axis not shown) too.
100 to 1000 nM

Check CCN(c1nc(OCC23CCCN2CC(F)C3)nc2c(F)c(-c3ccc(F)c4sc(N)c(C#N)c34)c(C(F)(F)F)cc12)C1CCN(C(=O)c2ccc(Cl)s2)C1 (stereo not drawn) too.
100 to 1000 nM

Check CCN(c1nc(OC[C@@]23CCCN2C[C@H](F)C3)nc2c(F)c(-c3ccc(F)c4sc(N)c(C#N)c34)c(C(F)(F)F)cc12)[C@H]1CCN(C(=O)C2CC2)[C@@H]1C (atropisomer, axis not shown) too.
≤ 100 nM

Check CCN(c1nc(OC[C@@]23CCCN2C[C@H](F)C3)nc2c(F)c(-c3ccc(F)c4sc(N)c(C#N)c34)c(C(F)(F)F)cc12)[C@H]1CCN(C(C)=O)C1 too.
≤ 100 nM

Check CCN(c1nc(OC[C@@]23CCCN2C[C@H](F)C3)nc2c(F)c(-c3ccc(F)c4sc(N)c(C#N)c34)c(C(F)(F)F)cc12)[C@H]1CCN(C(=O)c2nccs2)C1 (atropisomer, axis not shown) too.
100 to 1000 nM

Check CCN(c1nc(OC[C@@]23CCCN2C[C@H](F)C3)nc2c(F)c(-c3ccc(F)c4sc(N)c(C#N)c34)c(C(F)(F)F)cc12)C1CCN(C(=O)OC)C1 (stereo partly drawn) too.
1000 to 10000 nM

Check CCN(c1nc(OC[C@@]23CCCN2C[C@H](F)C3)nc2c(F)c(-c3ccc(F)c4sc(N)c(C#N)c34)c(C(F)(F)F)cc12)[C@H]1CCN(C(=O)c2ccns2)C1 (atropisomer, axis not shown) too.
100 to 1000 nM
